Target: Mitogen-activated protein kinase 3 (Homo sapiens, UniProt P27361)
Sequence (P27361 whole entry): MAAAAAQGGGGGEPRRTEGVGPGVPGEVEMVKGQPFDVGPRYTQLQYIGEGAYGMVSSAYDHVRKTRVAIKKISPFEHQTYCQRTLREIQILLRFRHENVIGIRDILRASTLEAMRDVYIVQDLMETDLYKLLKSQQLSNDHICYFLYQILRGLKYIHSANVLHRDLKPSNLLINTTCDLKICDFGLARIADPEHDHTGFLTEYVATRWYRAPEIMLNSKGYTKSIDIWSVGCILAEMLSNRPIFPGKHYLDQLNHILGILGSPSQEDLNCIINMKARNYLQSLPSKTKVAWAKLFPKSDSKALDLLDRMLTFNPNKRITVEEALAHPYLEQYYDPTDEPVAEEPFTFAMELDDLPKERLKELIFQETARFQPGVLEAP
Test: DRUGMATRIX: Protein Serine/Threonine Kinase, ERK1 enzyme inhibition (substrate: Myelin Basic Protein)
Parameters: species or system Escherichia coli
Conditions: Not Active = under 50% inhibition at 10 µM

compound | experimental target | IC50
O=C1CC[C@@]2(O)[C@H]3Cc4ccc(O)c5c4[C@@]2(CCN3CC2CC2)[C@H]1O5 [NALTREXONE] | Mitogen-activated protein kinase 3 (Homo sapiens, UniProt P27361) | Not Active
C#C[C@]1(O)CC[C@H]2[C@@H]3CCC4=CC(=O)CC[C@@H]4[C@H]3CC[C@@]21C | Mitogen-activated protein kinase 3 (Homo sapiens, UniProt P27361) | Not Active
CO[C@@H]1[C@@H](OC)[C@H](C)[C@@](O)(CC(=O)O)O[C@H]1[C@H](C)[C@H]1O[C@@]2(CC[C@@](C)([C@H]3CC[C@@](C)([C@@H]4O[C@@H]([C@H]5O[C@](C)(O)[C@H](C)C[C@@H]5C)C[C@@H]4O[C@@H]4C[C@H](OC)[C@@H](OC)[C@H](C)O4)O3)O2)C[C@H](O)[C@H]1C.N | Mitogen-activated protein kinase 3 (Homo sapiens, UniProt P27361) | Not Active
O=[As][O-].[Na+] [SODIUM ARSENITE] | Mitogen-activated protein kinase 3 (Homo sapiens, UniProt P27361) | Not Active
CCC(C)(C)C(=O)O[C@H]1C[C@@H](C)C=C2C=C[C@H](C)[C@H](CC[C@@H]3C[C@@H](O)CC(=O)O3)[C@H]21 | Mitogen-activated protein kinase 3 (Homo sapiens, UniProt P27361) | Not Active
C=CCO | Mitogen-activated protein kinase 3 (Homo sapiens, UniProt P27361) | Not Active

The reported measurements were obtained from ChEMBL document CHEMBL1909046.
